Reference source for all entries: patent US20060160864A1

molecular target: human CCR5 (Homo sapiens); construct: expressed in transfected cells; assay: Inhibition of [125I]-RANTES binding to CCR5/CHO cells (CCR5 antagonist activity); conditions: 40 min, test compound 1 μM, [125I]-RANTES 100 pM, CCR5/CHO strains, room temperature, read-out: Binding Inhibitory Ratio (%)
Sequence (P51681 whole entry): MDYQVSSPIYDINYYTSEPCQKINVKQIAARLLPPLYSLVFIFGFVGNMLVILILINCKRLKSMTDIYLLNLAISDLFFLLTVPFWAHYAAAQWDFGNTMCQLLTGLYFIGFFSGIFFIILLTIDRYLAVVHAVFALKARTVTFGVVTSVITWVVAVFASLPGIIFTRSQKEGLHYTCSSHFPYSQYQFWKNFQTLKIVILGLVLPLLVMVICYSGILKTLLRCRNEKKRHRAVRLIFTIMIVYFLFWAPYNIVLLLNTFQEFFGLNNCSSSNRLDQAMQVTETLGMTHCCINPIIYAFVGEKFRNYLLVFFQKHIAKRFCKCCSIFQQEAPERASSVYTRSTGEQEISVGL
Answer each item with its documented inhibition at 1 µM.
Numbers only, in %.

{"compound": "CCCCOCCOc1ccc(-c2ccc(N3CCC(CC(=O)OCC)C3)c(/C=C(\\C)C(=O)Nc3ccc([S@@+]([O-])Cc4cncn4CCC)cc3)c2)cc1 (some centres unmarked)", "inhibition at 1 µM [%]": 94}

Hi, could you look up inhibition at 1 µM for each item in my list?
1. CCCCOCCOc1ccc(-c2ccc(N3CCC(CC(=O)O)C3)c(/C=C(\C)C(=O)Nc3ccc([S@@+]([O-])Cc4cncn4CCC)cc3)c2)cc1 (some centres unmarked)
2. CCCCOCCOc1ccc(-c2ccc(N3CCCC3)c(/C(C)=C/C(=O)Nc3ccc([S@@+]([O-])Cc4cncn4CCC)cc3)c2)cc1

1. 100
2. 100

Hi, could you look up inhibition at 1 µM for each item in my list?
1. CCCCOCCOc1ccc(-c2cnc(N3CCCC3)c(/C=C(\C)C(=O)Nc3ccc([S@@+]([O-])Cc4cncn4CCC)cc3)c2)cc1
2. CCCCOCCOc1ccc(-c2ccc(N3CCC(C)C3)c(/C=C(\C)C(=O)Nc3ccc([S@@+]([O-])Cc4cncn4CCC)cc3)c2)cc1 (some centres unmarked)
3. CCCCOCCOc1ccc(-c2ccc(N3CC(C)C(C)C3)c(/C=C(\C)C(=O)Nc3ccc([S@@+]([O-])Cc4cncn4CCC)cc3)c2)cc1 (some centres unmarked)
4. CCCCOCCOc1ccc(-c2ccc(N3CCC(CO)C3)c(/C=C(\C)C(=O)Nc3ccc([S@@+]([O-])Cc4cncn4CCC)cc3)c2)cc1 (some centres unmarked)
5. CCCCOCCOc1ccc(-c2ccc(N3CCC(C(N)=O)C3)c(/C=C(\C)C(=O)Nc3ccc([S@@+]([O-])Cc4cncn4CCC)cc3)c2)cc1 (some centres unmarked)
6. CCCCOCCOc1ccc(-c2ccc(N3CCC(C(=O)O)C3)c(/C=C(\C)C(=O)Nc3ccc([S@@+]([O-])Cc4cncn4CCC)cc3)c2)cc1 (some centres unmarked) [Compound 41]

[96, 100, 100, 99, 86, 100]

Hi, could you look up inhibition at 1 µM for each item in my list?
1. CCCCOCCOc1ccc(-c2ccc(N3CCC(COC(C)=O)C3)c(/C=C(\C)C(=O)Nc3ccc([S@@+]([O-])Cc4cncn4CCC)cc3)c2)cc1 (some centres unmarked)
2. CCCCOCCOc1ccc(-c2ccc(N3CCC(C(=O)OC)C3)c(/C=C(\C)C(=O)Nc3ccc([S@@+]([O-])Cc4cncn4CCC)cc3)c2)cc1 (single isomer, unassigned) [Compound 57]
3. CCCCOCCOc1ccc(-c2ccc(N3CCCC3C)c(/C=C(\C)C(=O)Nc3ccc([S@@+]([O-])Cc4cncn4CCC)cc3)c2)cc1 (some centres unmarked)
4. CCCCOCCOc1ccc(-c2cnc(N3CCC(C)C3)c(/C=C(\C)C(=O)Nc3ccc([S@@+]([O-])Cc4cncn4CCC)cc3)c2)cc1 (some centres unmarked)
5. CCCCOCCOc1ccc(-c2ccc(N3CCC(C(=O)O)C3)c(/C=C(\C)C(=O)Nc3ccc([S@@+]([O-])Cc4cncn4CCC)cc3)c2)cc1 (single isomer, unassigned) [Compound 59]
6. CCCCOCCOc1ccc(-c2cnc(N3CCC(COC(C)=O)C3)c(/C=C(\C)C(=O)Nc3ccc([S@@+]([O-])Cc4cncn4CCC)cc3)c2)cc1 (some centres unmarked)

1: 93; 2: 100; 3: 100; 4: 98; 5: 89; 6: 100

Hi, could you look up inhibition at 1 µM for each item in my list?
1. CCCCOCCOc1ccc(-c2cnc(N3CCC(CO)C3)c(/C=C(\C)C(=O)Nc3ccc([S@@+]([O-])Cc4cncn4CCC)cc3)c2)cc1 (some centres unmarked)
2. CCCCOCCOc1ccc(-c2ccc(N3CCC(C(=O)OC)C3)c(/C=C(\C)C(=O)Nc3ccc([S@@+]([O-])Cc4cncn4CCC)cc3)c2)cc1 (some centres unmarked) [Compound 40]

100
100
